Data provenance: patent US20230066946A1

Tested on: STEME
Assay: Post-emergence herbicidal action against STEME
Format: in vivo, Stellaria media
Details: 1280 g/ha, visual rating about 3 weeks after treatment
Method: [table] Seeds of mono- and dicotyledonous weed plants are placed in plastic pots in sandy loam soil (twin sowing with one species each of mono- or dicotyledonous weed plants per pot), covered with soil and cultivated in a greenhouse under controlled growth conditions. 2 to 3 weeks after sowing, the test plants are treated at the one-leaf stage. […]
Measure name: Post-emergence action against STEME in %
Remember to follow the number with its unit.

Example entries and their recorded answers appear below.
{"Molecule": "COC(=O)COc1nn(-c2ccc(F)cc2)c(-c2ccc(F)c(F)c2)c1C#N [I-036]", "Result": "80%"}
{"Molecule": "C#Cc1c(OCC(=O)OC)nn(-c2cccc(F)c2)c1-c1cccc(F)c1 [I-069]", "Result": "80%"}
{"Molecule": "COC(=O)C(C)Oc1nn(-c2ccccc2)c(-c2cc(F)cc(F)c2)c1Cl (stereo not shown) [I-165]", "Result": "100%"}
{"Molecule": "COC(=O)COc1nn(-c2cccc(F)c2)c(-c2ccccc2)c1Cl [I-016]", "Result": "80%"}
{"Molecule": "CCOC(=O)COc1nn(-c2ccc(F)cc2F)c(-c2cccc(F)c2)c1Cl [I-098]", "Result": "90%"}
{"Molecule": "CCOC(=O)COc1nn(-c2ccccc2)c(-c2ccc(F)cc2F)c1Br [I-085]", "Result": "100%"}

Reported Post-emergence action against STEME in % for CCOC(=O)COc1nn(-c2c(F)cccc2F)c(-c2ccc(F)c(F)c2)c1Cl [I-142] : what is it? 100%

----------
Listed below: Post-emergence action against STEME in % values for each entry.
system: STEME; experiment: Post-emergence herbicidal action against STEME; assay type: in vivo, Stellaria media; settings: 1280 g/ha, visual rating about 3 weeks after treatment
Give the quantity in %, number only.

Study these solved cases before continuing.
{"Compound": "COC(=O)COc1nn(-c2cccc(Cl)c2)c(-c2ccc(F)c(F)c2)c1C#N", "Measure name": "Post-emergence action against STEME in %", "Readout number": 80}
{"Compound": "C=CCNC(=O)COc1nn(-c2ccccc2F)c(-c2ccc(F)c(F)c2)c1Cl", "Measure name": "Post-emergence action against STEME in %", "Readout number": 100}
{"Compound": "CCOC(=O)COc1nn(-c2ccc(Cl)cc2F)c(-c2ccc(F)cc2F)c1Br", "Measure name": "Post-emergence action against STEME in %", "Readout number": 100}

Reported Post-emergence action against STEME in % for CCCN.O=C(O)COc1nn(-c2cccc(F)c2)c(-c2ccccc2)c1I : what is it? 100

Now the same for COC(=O)COc1nn(-c2ccc(F)cc2)c(-c2ccccc2)c1C#N 80

// query: COC(=O)[C@H](C)Oc1nn(-c2cccc(F)c2)c(-c2cccc(F)c2)c1C#N 100

Try the compound COC(=O)C(C)Oc1nn(-c2cccc(F)c2)c(-c2cccc(F)c2)c1C#N (stereo not drawn) 90

Similarly, COC(=O)CNC(=O)C(C)Oc1nn(-c2ccccc2)c(-c2ccc(F)cc2)c1Cl (stereo not drawn) ? 100

Also, CC(Oc1nn(-c2ccccc2F)c(-c2ccc(F)c(F)c2)c1Br)C(=O)O (stereo not drawn) please. 100

----------
tested on: ALOMY; experiment: Post-emergence herbicidal action against ALOMY; type: in vivo, Alopecurus myosuroides; conditions: 1280 g/ha, post-emergence at one-leaf stage, rated visually after about 3 weeks vs untreated controls
Measure name: Post-emergence action against ALOMY in %
Answer as a quantity: numeral, then unit.

{"Molecule": "COC(=O)C(C)Oc1nn(-c2ccccc2F)c(-c2ccccc2)c1C#N (stereo not drawn)", "Post-emergence action against ALOMY in %": "90%"}
{"Molecule": "CCOC(=O)COc1nn(-c2ccccc2)c(-c2ccccc2)c1Br", "Post-emergence action against ALOMY in %": "80%"}

Next molecule, please.
State the recorded Post-emergence action against ALOMY in % for this entry: O=C(O)COc1nn(-c2ccccc2)c(-c2ccc(F)cc2)c1Br 90%

----------
Pre-emergence action against PHBPU in % by entry:
System: PHBPU
Experiment: Pre-emergence herbicidal action against PHBPU
Type: in vivo, Pharbitis purpurea
Settings: 1280 g/ha, scored visually after about 3 weeks vs untreated controls
Excerpt: Seeds of mono- and dicotyledonous weed plants are placed in plastic pots in sandy loam soil (doubly sown with one species each of mono- or dicotyledonous weed plants per pot) and covered with soil. […] After about 3 weeks, the effect of the preparations is scored visually in comparison with untreated controls as percentages. […]
Value expressed in %; do not type the unit.

Sample answers from the record:
{"Compound": "CCOC(=O)COc1nn(-c2ccc(F)cc2)c(-c2ccccc2)c1Br [I-072]", "Units symbol": "%", "Readout number": 90}
{"Compound": "COC(=O)COc1nn(-c2ccccc2F)c(-c2ccccc2)c1Cl [I-015]", "Units symbol": "%", "Readout number": 100}
{"Compound": "COC(=O)C(C)Oc1nn(-c2ccccc2F)c(-c2ccccc2)c1C#N (stereo not shown) [I-061]", "Units symbol": "%", "Readout number": 90}
{"Compound": "C#Cc1c(OCC(=O)OC)nn(-c2cccc(F)c2)c1-c1cccc(F)c1 [I-069]", "Units symbol": "%", "Readout number": 80}
{"Compound": "CCOC(=O)COc1nn(-c2ccccc2)c(-c2ccccc2)c1Br [I-070]", "Units symbol": "%", "Readout number": 90}

For the compound COC(=O)COc1nn(-c2cccc(F)c2)c(-c2cccc(F)c2)c1Cl [I-003] , what Pre-emergence action against PHBPU in % is on record? 80

Request: O=C(O)COc1nn(-c2ccccc2)c(-c2ccc(F)cc2)c1Br [I-057] 90

----------
Tested on: STEME
Assay: Post-emergence herbicidal action against STEME
Type: in vivo, Stellaria media
Conditions: 1280 g/ha, visual rating about 3 weeks after treatment
Protocol: [table] Seeds of mono- and dicotyledonous weed plants are placed in plastic pots in sandy loam soil (twin sowing with one species each of mono- or dicotyledonous weed plants per pot), covered with soil and cultivated in a greenhouse under controlled growth conditions. 2 to 3 weeks after sowing, the test plants are treated at the one-leaf stage. […]
Measure name: Post-emergence action against STEME in % (%)
The reply should contain only the number, in %.

{"Compound": "CCOC(=O)COc1nn(-c2ccc(F)cc2F)c(-c2ccccc2)c1Br", "Post-emergence action against STEME in % [%]": 100}
{"Compound": "COC(=O)CNC(=O)COc1nn(-c2ccc(F)cc2)c(-c2cccc(F)c2)c1Cl", "Post-emergence action against STEME in % [%]": 90}
{"Compound": "COC(=O)C(C)Oc1nn(-c2ccccc2)c(-c2ccc(F)cc2)c1Cl (stereo not shown)", "Post-emergence action against STEME in % [%]": 100}
{"Compound": "CC(C)(Oc1nn(-c2ccccc2)c(-c2ccc(F)cc2)c1Br)C(=O)O", "Post-emergence action against STEME in % [%]": 100}
{"Compound": "CCOC(=O)COc1nn(-c2c(F)cccc2F)c(-c2ccc(F)c(F)c2)c1Br", "Post-emergence action against STEME in % [%]": 100}
{"Compound": "O=C(O)COc1nn(-c2ccc(F)cc2)c(-c2cccc(F)c2)c1[N+](=O)[O-]", "Post-emergence action against STEME in % [%]": 100}

Please provide the recorded Post-emergence action against STEME in % for O=C(COc1nn(-c2ccccc2)c(-c2ccc(F)cc2)c1Br)OCc1cccc(F)c1 , tested on STEME. 90

Another compound: CC(Oc1nn(-c2c(F)cccc2F)c(-c2ccc(F)c(F)c2)c1Br)C(=O)O (stereo not shown) 100

Same thing, different compound: COC(=O)[C@H](C)Oc1nn(-c2ccccc2)c(-c2ccc(F)cc2)c1C#N 90

What do you get for COC(=O)COc1nn(-c2ccccc2F)c(-c2ccccc2)c1C#N ? 80

Another: CCOC(=O)COc1nn(-c2ccc(F)cc2)c(-c2ccccc2)c1Br 80

Quick one: CCOC(=O)COc1nn(-c2ccccc2F)c(-c2ccc(F)c(F)c2)c1Cl 90

Cool, now C=CCNC(=O)COc1nn(-c2ccccc2F)c(-c2ccc(F)c(F)c2)c1Br 100

Similarly, CCOC(=O)COc1nn(-c2ccccc2)c(-c2ccc(F)cc2)c1Br ? 90

Also, O=C(O)COc1nn(-c2ccccc2)c(-c2ccc(F)cc2)c1Br please. 90

Also COC(=O)COc1nn(-c2ccccc2)c(-c2cccc(F)c2)c1C#N , if possible. 80

Next: CCOC(=O)COc1nn(-c2ccccc2)c(-c2ccccc2)c1Br 90

Same question for COC(=O)COc1nn(-c2ccccc2F)c(-c2ccccc2)c1Br please. 100

Another compound to look at: COC(=O)COc1nn(-c2ccc(F)cc2)c(-c2cccc(F)c2)c1Br 90
